pIC50: −log10 of the molar value.
In what follows, each item is paired with its pIC50 for DGKα (hDGKalpha(1-735)-N-His) (Homo sapiens).

Example entries and their recorded answers appear below.
compound	pIC50
N[C@H]1CS(=O)(=O)c2cc(F)c(-c3noc(N4CCOC5(CC5)C4)n3)cc2N(Cc2ccc(-c3ccc(C(F)(F)F)cc3)nc2)C1=O	< 5.20
N[C@H]1CS(=O)(=O)c2ccc(-c3nnc(N4CCC(F)(F)CC4)o3)cc2N(Cc2ccc(-c3nc(C(F)(F)F)no3)cc2)C1=O	< 4.20
COCCN1CC(c2nnc(-c3ccc4c(c3)N(Cc3ccc(-c5ccc(OC)cc5)cc3)C(=O)[C@@H](N)CS4(=O)=O)o2)CC(F)(F)C1 (stereo partly shown)	< 4.20

API: the following record is the query input.
Noted for N[C@H]1CS(=O)(=O)c2ccc(-c3noc(C4(N)COC4)n3)cc2N(Cc2ccc(-c3noc(C(F)(F)F)n3)cc2)C1=O : its pIC50 reads < 4.20
